Attribution: PubChem BioAssay AID1919008

system: DMS-114 complex spheroids with HUVEC/MSC, growth % test/control; experiment: Anticancer human tumor DMS-114 cell line growth inhibition [AhR]; conditions: second compound 3.16 µM; first compound 10 µM; stronger effect = lower value
Note to self: use T only for viability, T/C readings below 10%; a reading exactly at 10% still gets F.

Use the examples below as a reference point.
| MOLECULE | LABEL_VALUE |
| --- | --- |
| COc1cccc2c1C(=O)c1c(O)c3c(c(O)c1C2=O)CC(O)(C(=O)CO)CC3OC1CC(N)C(O)C(C)O1 (configuration not stated) + Cc1ccccc1N=Nc1ccc(NC(=O)c2ccnn2C)c(C)c1 | T |
| CC1(C)CCC(CN2CCN(c3ccc(C(=O)NS(=O)(=O)c4ccc(NCC5CCOCC5)c([N+](=O)[O-])c4)c(Oc4cnc5[nH]ccc5c4)c3)CC2)=C(c2ccc(Cl)cc2)C1 + Cc1ccccc1N=Nc1ccc(NC(=O)c2ccnn2C)c(C)c1 | F |
| O=C(c1cc(Cc2n[nH]c(=O)c3ccccc23)ccc1F)N1CCN(C(=O)C2CC2)CC1 + Cc1cncc(-c2nc(NCCc3c[nH]c4ccccc34)c3ncn(C(C)C)c3n2)c1 | F |
| COc1ccc([C@@H](O)c2cc(-c3ncnc4cc(N5CCOCC5)ccc34)c(F)cc2Cl)nn1 + CC(CO)NC(=O)c1cc(-c2ccc(Cl)cc2)nn(-c2cnn(C)c2)c1=O | F |
| Nc1ccccc1NC(=O)c1ccc(CNC(=O)OCc2cccnc2)cc1 + CC(CO)NC(=O)c1cc(-c2ccc(Cl)cc2)nn(-c2cnn(C)c2)c1=O | F |

Now look at this entry.
Is the reported viability, T/C for COc1cc(C2c3cc4c(cc3C(OC3OC5COC(C)OC5C(O)C3O)C3COC(=O)C23)OCO4)cc(OC)c1O (configuration not stated) + CC(CO)NC(=O)c1cc(-c2ccc(Cl)cc2)nn(-c2cnn(C)c2)c1=O strictly below 10%?
F

---

system: DMS-114 complex spheroids with HUVEC/MSC, growth % test/control; experiment: Anticancer human tumor DMS-114 cell line growth inhibition [AhR]; conditions: second compound 10 µM; first compound 0.0316 µM; stronger effect = lower value;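 note: spheroids exposed to agents for 7 days before readout; 100% = DMSO vehicle control wells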
REPORTED_METRIC: viability, T/C (%)
One number for each entry, in %.

These solved cases illustrate the format of a correct answer.
| COMPOUND | UNIT_LABEL | viability, T/C |
| --- | --- | --- |
| CC1COCCN1c1cc(C2(S(C)(=N)=O)CC2)nc(-c2ccnc3[nH]ccc23)n1 (configuration not stated) + CC(CO)NC(=O)c1cc(-c2ccc(Cl)cc2)nn(-c2cnn(C)c2)c1=O | % | 103 |
| COc1cc(C2c3cc4c(cc3C(OC3OC5COC(C)OC5C(O)C3O)C3COC(=O)C23)OCO4)cc(OC)c1O (configuration not stated) + CC(CO)NC(=O)c1cc(-c2ccc(Cl)cc2)nn(-c2cnn(C)c2)c1=O | % | 94.4 |
| Nc1ncn(C2CC(O)C(CO)O2)c(=O)n1 (configuration not stated) + CC(CO)NC(=O)c1cc(-c2ccc(Cl)cc2)nn(-c2cnn(C)c2)c1=O | % | 93.4 |
| Nc1ncn(C2CC(O)C(CO)O2)c(=O)n1 (configuration not stated) + Cc1ccccc1N=Nc1ccc(NC(=O)c2ccnn2C)c(C)c1 | % | 92.1 |
| COc1cc(Nc2ncc3c(n2)-c2ccc(Cl)cc2C(c2c(F)cccc2OC)=NC3)ccc1C(=O)O + Cc1ccccc1N=Nc1ccc(NC(=O)c2ccnn2C)c(C)c1 | % | 44.7 |

Please state viability, T/C for every compound in the list that follows.
1. COc1ccc([C@@H](O)c2cc(-c3ncnc4cc(N5CCOCC5)ccc34)c(F)cc2Cl)nn1 + Cc1ccccc1N=Nc1ccc(NC(=O)c2ccnn2C)c(C)c1
2. Cn1ncnc1C1c2n[nH]c(=O)c3cc(F)cc(c23)NC1c1ccc(F)cc1 (configuration not stated) + Cc1cncc(-c2nc(NCCc3c[nH]c4ccccc34)c3ncn(C(C)C)c3n2)c1

1. 94.6
2. 37.6

---

system: DMS-114 complex spheroids with HUVEC/MSC, growth % test/control; assay: Anticancer human tumor DMS-114 cell line growth inhibition [AhR]; details: second compound 3.16 µM; first compound 1 µM; stronger effect = lower value;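 note: spheroids exposed to agents for 7 days before readout; 100% = DMSO vehicle control wells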
REPORTED_METRIC: viability, T/C (%)
One number for each entry, in %.

These solved cases illustrate the format of a correct answer.
| MOLECULE | viability, T/C [%] |
| --- | --- |
| CC(C)c1c(-c2ccccc2)nc2c(C#N)c[nH]n2c1=O + CC(CO)NC(=O)c1cc(-c2ccc(Cl)cc2)nn(-c2cnn(C)c2)c1=O | 94.6 |
| CC(C)c1c(-c2ccccc2)nc2c(C#N)c[nH]n2c1=O + Cc1cncc(-c2nc(NCCc3c[nH]c4ccccc34)c3ncn(C(C)C)c3n2)c1 | 88.8 |
| Nc1ncn(C2CC(O)C(CO)O2)c(=O)n1 (centres undefined) + CC(CO)NC(=O)c1cc(-c2ccc(Cl)cc2)nn(-c2cnn(C)c2)c1=O | 70.7 |

Quick one: viability, T/C for O=C(C=Cc1cccc(S(=O)(=O)Nc2ccccc2)c1)NO + Cc1ccccc1N=Nc1ccc(NC(=O)c2ccnn2C)c(C)c1 ?
66

---

Please respond with reported viability, T/C for every item in the list.
test system: DMS-114 complex spheroids with HUVEC/MSC, growth % test/control; assay: Anticancer human tumor DMS-114 cell line growth inhibition [AhR]; settings: second compound 10 µM; first compound 0.949 µM; stronger effect = lower value;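 note: spheroids exposed to agents for 7 days before readout; 100% = DMSO vehicle control wells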
Answers are plain numbers, in %.

Please state viability, T/C for every molecule in the list that follows.
1. O=C(C=Cn1cnc(-c2cc(C(F)(F)F)cc(C(F)(F)F)c2)n1)NNc1cnccn1 + Cc1ccccc1N=Nc1ccc(NC(=O)c2ccnn2C)c(C)c1
2. CCN(c1cc(-c2ccc(CN3CCOCC3)cc2)cc(C(=O)NCc2c(C)cc(C)[nH]c2=O)c1C)C1CCOCC1 + CC(CO)NC(=O)c1cc(-c2ccc(Cl)cc2)nn(-c2cnn(C)c2)c1=O
3. O=C(C=Cn1cnc(-c2cc(C(F)(F)F)cc(C(F)(F)F)c2)n1)NNc1cnccn1 + CC(CO)NC(=O)c1cc(-c2ccc(Cl)cc2)nn(-c2cnn(C)c2)c1=O
4. CCN(c1cc(-c2ccc(CN3CCOCC3)cc2)cc(C(=O)NCc2c(C)cc(C)[nH]c2=O)c1C)C1CCOCC1 + Cc1cncc(-c2nc(NCCc3c[nH]c4ccccc34)c3ncn(C(C)C)c3n2)c1
5. O=C(C=Cn1cnc(-c2cc(C(F)(F)F)cc(C(F)(F)F)c2)n1)NNc1cnccn1 + Cc1cncc(-c2nc(NCCc3c[nH]c4ccccc34)c3ncn(C(C)C)c3n2)c1
6. CCN(c1cc(-c2ccc(CN3CCOCC3)cc2)cc(C(=O)NCc2c(C)cc(C)[nH]c2=O)c1C)C1CCOCC1 + Cc1ccccc1N=Nc1ccc(NC(=O)c2ccnn2C)c(C)c1

1. 51.5
2. 92.4
3. 18.4
4. 45.7
5. 13.5
6. 103

---

Please respond with reported viability, T/C for every item in the list.
test system: DMS-114 complex spheroids with HUVEC/MSC, growth % test/control; assay: Anticancer human tumor DMS-114 cell line growth inhibition [AhR]; conditions: second compound 10 µM; first compound 0.0316 µM; stronger effect = lower value;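 note: spheroids exposed to agents for 7 days before readout; 100% = DMSO vehicle control wells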

These solved cases illustrate the format of a correct answer.
| COMPOUND | SYSTEM | viability, T/C |
| --- | --- | --- |
| O=C(c1cc(Cc2n[nH]c(=O)c3ccccc23)ccc1F)N1CCN(C(=O)C2CC2)CC1 + Cc1cncc(-c2nc(NCCc3c[nH]c4ccccc34)c3ncn(C(C)C)c3n2)c1 | DMS-114 complex spheroids with HUVEC/MSC, growth % test/control | 31.8% |
| O=C(C=Cc1cccc(S(=O)(=O)Nc2ccccc2)c1)NO + Cc1cncc(-c2nc(NCCc3c[nH]c4ccccc34)c3ncn(C(C)C)c3n2)c1 | DMS-114 complex spheroids with HUVEC/MSC, growth % test/control | 46.9% |
| Cn1ncnc1C1c2n[nH]c(=O)c3cc(F)cc(c23)NC1c1ccc(F)cc1 (stereo not drawn) + Cc1ccccc1N=Nc1ccc(NC(=O)c2ccnn2C)c(C)c1 | DMS-114 complex spheroids with HUVEC/MSC, growth % test/control | 95.1% |
| Nc1ncn(C2CC(O)C(CO)O2)c(=O)n1 (stereo not drawn) + Cc1cncc(-c2nc(NCCc3c[nH]c4ccccc34)c3ncn(C(C)C)c3n2)c1 | DMS-114 complex spheroids with HUVEC/MSC, growth % test/control | 44.8% |
| NS(=O)(=O)OCC1CC(n2ccc3c(NC4CCc5ccccc54)ncnc32)CC1O (stereo not drawn) + CC(CO)NC(=O)c1cc(-c2ccc(Cl)cc2)nn(-c2cnn(C)c2)c1=O | DMS-114 complex spheroids with HUVEC/MSC, growth % test/control | 49.4% |

Please state viability, T/C for every compound in the list that follows.
1. CC1(C)CCC(CN2CCN(c3ccc(C(=O)NS(=O)(=O)c4ccc(NCC5CCOCC5)c([N+](=O)[O-])c4)c(Oc4cnc5[nH]ccc5c4)c3)CC2)=C(c2ccc(Cl)cc2)C1 + Cc1ccccc1N=Nc1ccc(NC(=O)c2ccnn2C)c(C)c1
2. Nc1ccn(C2OC(CO)C(O)C2(F)F)c(=O)n1 (stereo not drawn) + Cc1cncc(-c2nc(NCCc3c[nH]c4ccccc34)c3ncn(C(C)C)c3n2)c1
3. CC(C)c1c(-c2ccccc2)nc2c(C#N)c[nH]n2c1=O + Cc1cncc(-c2nc(NCCc3c[nH]c4ccccc34)c3ncn(C(C)C)c3n2)c1
4. Cn1ncnc1C1c2n[nH]c(=O)c3cc(F)cc(c23)NC1c1ccc(F)cc1 (stereo not drawn) + CC(CO)NC(=O)c1cc(-c2ccc(Cl)cc2)nn(-c2cnn(C)c2)c1=O

1. 104%
2. 9.18%
3. 30.4%
4. 78.1%

Please state viability, T/C for every compound in the list that follows.
1. O=C(C=Cc1cccc(S(=O)(=O)Nc2ccccc2)c1)NO + CC(CO)NC(=O)c1cc(-c2ccc(Cl)cc2)nn(-c2cnn(C)c2)c1=O
2. COc1cccc2c1C(=O)c1c(O)c3c(c(O)c1C2=O)CC(O)(C(=O)CO)CC3OC1CC(N)C(O)C(C)O1 (stereo not drawn) + CC(CO)NC(=O)c1cc(-c2ccc(Cl)cc2)nn(-c2cnn(C)c2)c1=O
3. O=C(c1cc(Cc2n[nH]c(=O)c3ccccc23)ccc1F)N1CCN(C(=O)C2CC2)CC1 + CC(CO)NC(=O)c1cc(-c2ccc(Cl)cc2)nn(-c2cnn(C)c2)c1=O
4. COc1cc(C2c3cc4c(cc3C(OC3OC5COC(C)OC5C(O)C3O)C3COC(=O)C23)OCO4)cc(OC)c1O (stereo not drawn) + Cc1cncc(-c2nc(NCCc3c[nH]c4ccccc34)c3ncn(C(C)C)c3n2)c1
5. CC(C)c1c(-c2ccccc2)nc2c(C#N)c[nH]n2c1=O + Cc1ccccc1N=Nc1ccc(NC(=O)c2ccnn2C)c(C)c1

1. 90.6%
2. 43.4%
3. 94%
4. 42.3%
5. 98.3%

Please state viability, T/C for every compound in the list that follows.
1. CC1COCCN1c1cc(C2(S(C)(=N)=O)CC2)nc(-c2ccnc3[nH]ccc23)n1 (stereo not drawn) + Cc1cncc(-c2nc(NCCc3c[nH]c4ccccc34)c3ncn(C(C)C)c3n2)c1
2. CC1(C)CCC(CN2CCN(c3ccc(C(=O)NS(=O)(=O)c4ccc(NCC5CCOCC5)c([N+](=O)[O-])c4)c(Oc4cnc5[nH]ccc5c4)c3)CC2)=C(c2ccc(Cl)cc2)C1 + CC(CO)NC(=O)c1cc(-c2ccc(Cl)cc2)nn(-c2cnn(C)c2)c1=O

["53%", "104%"]
